Parameter inhibition at 0.5 µM: see the listing below.
Tested on: Human myeloid monocytic leukemia cell line (MV-4-11)
Test: Inhibition of MV-4-11 cell proliferation (CellTiter luminescent viability)
Format: cell-based
Conditions: Homo sapiens, MV4-11; Table IA3, IRAK4 inhibitor-based; MV-4-11, 500 nM, 96 hours; read-out: Inhibition Rate at 500 nM (%)
Protocol: The tumor cells used herein were cultured in a cell culture medium listed in table 3 at 37 °C in an incubator with 5% CO2. […] The IC50 values of the compounds of the present disclosure (including the compounds in Table 1, Table 2, and Examples 1-468) were determined using the CellTiter-Meiluncell Luminescent Cell Viability Assay Kit from Dalian Meilun Biotech Co., Ltd. The detailed procedure is as follows: Tumor cells were seeded in 96-well cell culture plates at the densities specified in Table 4. […]

In the examples that follow, each entry is paired with its recorded inhibition at 0.5 µM.
Quickly give me recorded inhibition at 0.5 µM for COc1cc2nn(C3CCN(CC4CCN(c5cccc6c5C(=O)N(N5CCC(=O)NC5=O)C6=O)CC4)CC3)cc2cc1NC(=O)c1cccc(C(F)(F)F)n1
50 to 60%

Kindly indicate its recorded inhibition at 0.5 µM. Item: Cc1cc(-c2nc(C(=O)Nc3cc4oc(N5CCN(Cc6ccc7c(c6)C(=O)N(N6CCC(=O)NC6=O)C7=O)CC5)nc4nc3N3CC[C@@H](O)C3)co2)ccn1
60 to 80%

Determine its reported inhibition at 0.5 µM: O=C1CCN(N2C(=O)c3ccc(N4CCC(N5CCC(CN6CCC(n7cc(NC(=O)c8cnn9ccc(N%10CCOCC%10)nc89)c(C(F)F)n7)CC6)CC5)CC4)cc3C2=O)C(=O)N1
80 to 100%

State its inhibition at 0.5 µM for this compound: O=C1CCN(N2C(=O)c3ccc(N4C[C@H]5C[C@@H]4CN5C[C@H]4CC[C@H](n5cc(NC(=O)c6cnn7ccc(N8C[C@H]9C[C@@H]8CO9)nc67)c(C(F)F)n5)CC4)cc3C2=O)C(=O)N1
60 to 80%

Now examine the next entry.
Specify reported inhibition at 0.5 µM for the compound shown: O=C1CCN(N2C(=O)c3ccc(N4CCC(CN5CCC(n6cc(NC(=O)c7cnn8ccc(N9CCOCC9)nc78)c(C(F)F)n6)CC5)CC4)cc3C2=O)C(=O)N1
60 to 80%

* * *

test system: Human Acute T Lymphoblastic Leukemia Cells (Molt-4); assay: Inhibition of Molt-4 cell proliferation (CellTiter luminescent viability); type: cell-based; conditions: Homo sapiens, MOLT-4, 96 h, Table IH3, BCL-2 inhibitor-based; Molt-4, 500 nM, 96 hours; read-out: Inhibition Rate at 500 nM (%)
The reader will find reported inhibition at 0.5 µM values listed item by item below.

// below: answered compounds
Please supply the value of reported inhibition at 0.5 µM for the item CC1(C)CCC(c2ccc(Cl)cc2)=C(CN2CCN(c3ccc(C(=O)NS(=O)(=O)c4ccc(N[C@H](CCN5CC6CCC5CN6Cc5ccc6c(c5)C(=O)N(N5CCC(=O)NC5=O)C6=O)CSc5ccccc5)c(S(=O)(=O)C(F)(F)F)c4)cc3)CC2)C1 (stereo partly shown) [GT-07815]
80 to 100%

Provide measured inhibition at 0.5 µM value, entry: CC1(C)CCC(c2ccc(Cl)cc2)=C(CN2CCN(c3ccc(C(=O)NS(=O)(=O)c4ccc(N[C@H](CCN5C[C@H]6C[C@@H]5CN6Cc5ccc6c(c5)C(=O)N(N5CCC(=O)NC5=O)C6=O)CSc5ccccc5)c(S(=O)(=O)C(F)(F)F)c4)cc3)CC2)C1 [GT-07816]
60 to 70%

In one line, give reported inhibition at 0.5 µM of the entry CC1(C)CCC(c2ccc(Cl)cc2)=C(CN2CCN(c3ccc(C(=O)NS(=O)(=O)c4ccc(N[C@H](CCN5C[C@H]6C[C@@H]5CN6Cc5ccc6c(c5)CN(N5CCC(=O)NC5=O)C6=O)CSc5ccccc5)c(S(=O)(=O)C(F)(F)F)c4)cc3)CC2)C1 [GT-07812] .
80 to 100%

Further cases:
Complete the entry with inhibition at 0.5 µM for CC1(C)CCC(c2ccc(Cl)cc2)=C(CN2CCN(c3ccc(C(=O)NS(=O)(=O)c4ccc(N[C@H](CCN5C6CCC5CN(Cc5ccc7c(c5)CN(N5CCC(=O)NC5=O)C7=O)C6)CSc5ccccc5)c(S(=O)(=O)C(F)(F)F)c4)cc3)CC2)C1 [GT-07814]
80 to 100%

* * *

tested on: Human lung cancer cell line (H292); assay: Inhibition of H292 cell proliferation (CellTiter luminescent viability); type: cell-based; conditions: NCI-H292, Table IE2, CDK4/6 inhibitor-based, H292, 10 nM, 96 hours, read-out: Inhibition Rate at 10 nM (%)
measured.parameter: inhibition at 0.01 µM

Here are 2 compounds together with their reported answers.
Please list inhibition at 0.01 µM recorded for the compound CN(C)C(=O)c1cc2cnc(Nc3ccc(N4CCN(Cc5ccc6c(c5)CN(N5CCC(=O)NC5=O)C6=O)CC4)cn3)nc2n1C1CCCC1 [GT-06335]
35 to 40%

Please indicate inhibition at 0.01 µM recorded for CN(C)C(=O)c1cc2cnc(Nc3ccc(N4CCC(CN5CCN(c6cccc7c6C(=O)N(N6CCC(=O)NC6=O)C7=O)CC5)CC4)cn3)nc2n1C1CCCC1 [GT-05202]
35 to 40%

---
Write down inhibition at 0.01 µM measured for item CN(C)C(=O)c1cc2cnc(Nc3ccc(N4CCC(N(C)Cc5ccc6c(c5)CN(N5CCC(=O)NC5=O)C6=O)CC4)cn3)nc2n1C1CCCC1 [GT-06487]
25 to 30%

* * *

Molecular target: human Cereblon WT GST-tagged protein (CRBN) (Homo sapiens, UniProt Q96SW2)
Construct: purchased CISBIO 64BDCRBNPEH
Sequence (Q96SW2 whole entry): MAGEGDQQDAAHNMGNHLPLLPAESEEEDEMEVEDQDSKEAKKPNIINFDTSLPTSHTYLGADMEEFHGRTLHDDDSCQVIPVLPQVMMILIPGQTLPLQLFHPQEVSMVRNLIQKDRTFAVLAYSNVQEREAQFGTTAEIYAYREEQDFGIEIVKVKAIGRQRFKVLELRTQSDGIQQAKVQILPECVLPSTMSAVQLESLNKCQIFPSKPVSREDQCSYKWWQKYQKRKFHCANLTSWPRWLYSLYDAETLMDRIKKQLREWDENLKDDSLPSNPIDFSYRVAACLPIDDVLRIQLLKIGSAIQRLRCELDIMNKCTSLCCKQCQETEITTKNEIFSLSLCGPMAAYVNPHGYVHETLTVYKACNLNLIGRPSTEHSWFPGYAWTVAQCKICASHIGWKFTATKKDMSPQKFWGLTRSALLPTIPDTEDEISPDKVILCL
Assay: CRBN binding by HTRF (Cereblon binding kit)
Settings: 2 μM
Experimental: The CEREBLON BINDING kits (specification: 10,000 tests; product number: Catalog #64BDCRBNPEH; CISBIO company) was used to determine the CRBN binding ability of the compounds to be tested through a HTRF method (homogeneous time-resolved fluorescence). […] After sealing and incubating the solutions in the aforementioned wells at room temperature for 3 hours, the absorbance values at emission wavelengths of 620 nm and 665 nm were detected by the HTRF method using a Spark microplate reader (V3.1 SP1). […]
measured.parameter: Inhibition Rate at 2 μM (%)

For O=C1CCN(N2Cc3cc(CN4CCN(C5CCN(c6ccc(-c7cc(F)c8c(c7)C(=O)N(C(C(=O)Nc7nccs7)c7ncn9c7CCC9)C8)cc6)CC5)CC4)ccc3C2=O)C(=O)N1 (stereo not shown) , write its Inhibition Rate at 2 μM (%).
a5 (53% < a5 ≤ 60%)

Fill in reported Inhibition Rate at 2 μM (%) for this entry: CN(C)C(=O)c1cc2cnc(Nc3ccc(N4CCC(CN5CC6CC(C5)N6c5ccc6c(c5)C(=O)N(N5CCC(=O)NC5=O)C6=O)CC4)cn3)nc2n1C1CCCC1
a5 (53% < a5 ≤ 60%)

Using known records, supply Inhibition Rate at 2 μM (%) for CS(=O)(=O)c1cccc(CNc2nc(Nc3ccc(N4CCN(Cc5ccc6c(c5)CN(N5CCC(=O)NC5=O)C6=O)CC4)cc3)ncc2C(F)(F)F)c1
a5 (53% < a5 ≤ 60%)

* * *

The following compounds are listed with their measured inhibition at 0.5 µM values.
system: Human lung cancer cell line (H292); assay: Inhibition of H292 cell proliferation (CellTiter luminescent viability); format: cell-based; settings: NCI-H292, Table IM1, CDK9 inhibitor-based, H292, 500 nM, 96 hours, read-out: Inhibition Rate at 500 nM (%)

Answered cases to consult:
// Input: O=C(NC1CCNCC1)c1[nH]ncc1NC(=O)c1c(Cl)cccc1Cl [AT7519, reference compound] . Output its inhibition at 0.5 µM only.
5 to 10%

Supply inhibition at 0.5 µM value. Item: Cn1ncc(-c2nc(NC3CCN(Cc4ccc5c(c4)CN(N4CCC(=O)NC4=O)C5=O)CC3)ncc2Cl)c1CC1CC1 [GT-08212]
30 to 40%

Give the value of inhibition at 0.5 µM reported for the following: Cn1ncc(-c2nc(NC3CCN(CC4CCN(c5ccc6c(c5)C(=O)N(N5CCC(=O)NC5=O)C6=O)CC4)CC3)ncc2Cl)c1CC1CC1 [GT-08346]
50 to 60%

Please list inhibition at 0.5 µM recorded for the compound N#CC1(CNc2cccc(-c3cc(NC4CCN(Cc5ccc6c(c5)C(=O)N(N5CCC(=O)NC5=O)C6=O)CC4)ncc3Cl)n2)CCOCC1 [GT-08215]
20 to 30%

Complete the entry with inhibition at 0.5 µM for Cn1ncc(-c2nc(NC3CCN(CC4CCN(c5cccc6c5C(=O)N(N5CCC(=O)NC5=O)C6=O)CC4)CC3)ncc2Cl)c1CC1CC1 [GT-08347]
20 to 30%

Others:
For the compound O=C1CCN(N2C(=O)c3ccc(N4CCC(CN5CCN(c6ccc(CC(=O)Nc7cc(C8CCC8)[nH]n7)cc6)CC5)CC4)cc3C2=O)C(=O)N1 [GT-08350] , give its reported inhibition at 0.5 µM.
40 to 50%

For the compound O=C1CCN(N2Cc3cc(CN4CCN(c5ccc(CC(=O)Nc6cc(C7CCC7)[nH]n6)cc5)CC4)ccc3C2=O)C(=O)N1 [GT-08229] , give its measured inhibition at 0.5 µM value.
30 to 40%

Using the record for N#CC1(CNc2cccc(-c3cc(NC4CCN(CC5CCN(c6cccc7c6C(=O)N(N6CCC(=O)NC6=O)C7=O)CC5)CC4)ncc3Cl)n2)CCOCC1 [GT-08349] , state its measured inhibition at 0.5 µM.
20 to 30%

Check the records and state inhibition at 0.5 µM for N#CC1(CNc2cccc(-c3cc(NC4CCN(CC5CCN(c6ccc7c(c6)C(=O)N(N6CCC(=O)NC6=O)C7=O)CC5)CC4)ncc3Cl)n2)CCOCC1 [GT-08348]
30 to 40%

Write down inhibition at 0.5 µM measured for item N#CC1(CNc2nc(-c3cc(NC4CCN(CC5CCN(c6ccc7c(c6)C(=O)N(N6CCC(=O)NC6=O)C7=O)CC5)CC4)ncc3Cl)cs2)CCOCC1 [GT-04719]
15 to 20%
